Can you tell me pIC50 for the items I'm about to list?
system: Candida albicans; assay: Antifungal activity against Candida albicans ATCC 14053 after 48 hrs by CLSI method; format: functional, organism-based; settings: ATCC 14053, 48 h
// pIC50 is dimensionless: -log10 of concentration (M)

Query pIC50 for CCCCCCCCCCCCC#CCCCCC(=O)O [6-NONADECYNOIC ACID] 6.10

For the compound CN(C/C=C/C#CC(C)(C)C)Cc1cccc2ccccc12 [TERBINAFINE] , report pIC50. 4.86

Answer with reported pIC50 of CC[C@H](C)C[C@H](C)CCCCCCCCC(=O)N[C@H]1C[C@@H](O)[C@@H](NCCN)NC(=O)[C@@H]2[C@@H](O)CCN2C(=O)[C@H]([C@H](O)CCN)NC(=O)[C@H]([C@H](O)[C@@H](O)c2ccc(O)cc2)NC(=O)[C@@H]2C[C@@H](O)CN2C(=O)[C@H]([C@@H](C)O)NC1=O [CASPOFUNGIN] 7.30

Provide measured pIC50 value, entry: CCCCCCCCCC#CCCCCC(=O)O 4.09

---

tested on: Candida albicans; assay: Antifungal activity against Candida albicans ATCC 14053 after 48 hrs by CLSI method; type: functional, organism-based; conditions: ATCC 14053, 48 h
For each record, write down the corresponding pIC50.
Units for pIC50: none; it is -log10 of a concentration expressed in mol/L.

Complete the entry with pIC50 for CCCCCC#CCC#CCC#CCC#CCCCC(=O)O 5.09

Could you please provide reported pIC50 for CCCCCCCCCCCC#CCCCCC(=O)O [6-OCTADECYNOIC ACID] ? Thanks! 6.00

Identify pIC50 associated with the molecule OC(Cn1cncn1)(Cn1cncn1)c1ccc(F)cc1F [FLUCONAZOLE] 6.30

For the molecule CC(=O)N1CCN(c2ccc(OCC3COC(Cn4ccnc4)(c4ccc(Cl)cc4Cl)O3)cc2)CC1 (configuration not stated) [KETOCONAZOLE] , report pIC50. 8.00

---

tested on: Candida tropicalis; test: Antifungal activity against Candida tropicalis ATCC 750 after 48 hrs by CLSI method; format: functional, organism-based; details: ATCC 750, 48 h
So I've got a bunch of compounds here, and I need their MIC values.
Note to self: number, then unit, no commentary.

// Input: CCCCCCCCCCCC#CCCCCC(=O)O . Output its MIC only. 111 µM

Answer with the recorded MIC for the compound listed here: CC(=O)N1CCN(c2ccc(OCC3COC(Cn4ccnc4)(c4ccc(Cl)cc4Cl)O3)cc2)CC1 (stereo unspecified) 0.19 µM

Hello, please tell me recorded MIC for this one: CC[C@H](C)C[C@H](C)CCCCCCCCC(=O)N[C@H]1C[C@@H](O)[C@@H](NCCN)NC(=O)[C@@H]2[C@@H](O)CCN2C(=O)[C@H]([C@H](O)CCN)NC(=O)[C@H]([C@H](O)[C@@H](O)c2ccc(O)cc2)NC(=O)[C@@H]2C[C@@H](O)CN2C(=O)[C@H]([C@@H](C)O)NC1=O 0.1 µM

State its MIC: C[C@@H]1[C@H](O)[C@@H](C)/C=C/C=C/C=C/C=C/C=C/C=C/C=C/[C@H](O[C@@H]2O[C@H](C)[C@@H](O)[C@H](N)[C@@H]2O)C[C@@H]2O[C@](O)(C[C@@H](O)C[C@@H](O)[C@H](O)CC[C@@H](O)C[C@@H](O)CC(=O)O[C@H]1C)C[C@H](O)[C@H]2C(=O)O 1 µM

Respond only with MIC recorded for OC(Cn1cncn1)(Cn1cncn1)c1ccc(F)cc1F 15.3 µM

Answer with the recorded MIC of CCCCCCCCCC#CCCCCC(=O)O only. 74.3 µM
